System: TK-10 renal
PROCEDURE_DETAILS: NCI tumour cell line growth inhibition, 48 h

COMPOUND	TGI
Cn1c(N)c(/C=C/C(=O)Oc2ccccc2)c(=O)n(C)c1=O	> 100 µM
COC(=O)C(=O)C(C(C)=O)C(=O)C(=O)Nc1ccc(C)cc1C (stereo not given)	> 100 µM
COC1(OC)C2C=CC1C([C@](C)(N)CO)C2 (stereo not given in full)	> 100 µM
CCOC(=O)c1cc2c(n1Cc1cc(OC)cc(OC)c1)-c1oncc1CC2	> 100 µM
C/C(=N/N)c1sc(-c2nc(C)c(/C(C)=N\N)s2)nc1C	> 100 µM
COc1ccc(NC(=O)NNS(=O)(=O)c2ccc(C)cc2)cc1	> 100 µM
COc1ccc2[nH]c3c(O)c(-c4c(C)cc5c([nH]c6ccc(OC)cc65)c4O)c(C)cc3c2c1	8.19 µM
COc1ccc(-c2nnc(Nc3nc(O)c(C4=c5cc(Br)ccc5=NC4=O)s3)o2)cc1	51 µM
NS(=O)(=O)c1cc(C(=O)O)c(Cl)c([N+](=O)[O-])c1Cl	> 100 µM
O=C(CCl)Nc1ccc(Cc2ccc(NC(=O)CCl)cc2)cc1	> 75 µM

Origin of the recorded values: PubChem BioAssay (NCI)
